B1: SOAT1 (parent)
chain: KSAAMLAVFAVSAVVHEYALAVCL

Variants of: B1
Procedure summary: protein stability index of a GFP-peptide fusion (GPS, HEK-293T) (PSI 1-6); higher = more stable;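 also: lentivirally expressed fusions sorted by FACS into six bins by GFP to DsRed ratio, PSI derived from sequencing read proportions per bin multiplied by bin number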
Measurement conditions: c terminus: a fixed tail appended
Rule: 1 for protein stability index not less than 3, -1 for anything less.

Please review the entries below; each comes with its answer.
>>> group_label("V8F")
1
>>> group_label("C23P")
1

Say whether A19K shows protein stability index of 3 or more.
-1

Reported protein stability index at or above 3? A7R
1

Check the entry Y18F : does protein stability index equal or exceed 3?
1
